experiment: yeast display, Sf9 membrane polyspecificity reagent, FACS + sequencing; frameworks hold sequencing errors
Value Kind: polyreactivity (PSR sort gate)

QVQLEESGGGLVQAGGSLRLSFAASGRIFRRYAMGWYRQAPVKERELVAAISSRGGRTYYADSVKGRFTISRDNAKNTVYLQMNSLKPDDTAVYYCAAYYFFTDTYGPYEYWGQGTQVTVSS : high polyreactivity
QVQLVESGGGLVQAGGSLRLSCAASGRIFKVYTMGWYRQAPGKERELVATITRSGTSTYYADSVKGRFTISRDNAKNTVYLQMNSLKPEDTAVYYCARRVGYKFSYDYWGQGTQVTVSS : high polyreactivity
QVQLVESGGGLVQAGGSLRLSCAASGNIFTYYAMGWYRQAPGKERELVAAIRWRSGSTYYADSVKGRFTISRDNAKNTVYLQMNSLKPEDTAVYYCAADGTPYEYDYWGHGTQVTVSS : low polyreactivity
QVQLVESGGGLVQAGGSLRLSCAASGFIFTIYAMGWYRQAPGKERELVAAISSGGSTTYADSVKGRFTISRDNAKNTVYLQMNSLKPEDTAVYYCNAGVDPFGSLLPFTDQYDYWGQGTQVTVSS : low polyreactivity

Then there is this sequence:
Which polyreactivity (PSR sort gate) is listed for `QVQLVESGGGLVQAGGSLRLSCAASGIIFYLYTMGWYRQAPGKERELVAAITRGGSTYYADSVKGRFTISRDNAKNTVYLQMNSLKPEDTSVYYCAAKHGPGYRRWYDYWGQGTQVTVSS` ? high polyreactivity

----------
experiment: yeast display, Sf9 membrane polyspecificity reagent, FACS + sequencing; frameworks hold sequencing errors
Value Kind: polyreactivity (PSR sort gate)

QGQLVESGGGLVQAGGSLRLSCPASGRTFYGYAMGWYRQAPGKERELVAAITSSGGSTYYADSVKGRFTISRDHAKNTVYLQMNSLIPEDTAVYYCAAPSSRGQGRNFDYWGQGSQVTVSS : high polyreactivity
QVQLVESGGGLVQAGGSLRLSCAASGLTFSIYAMGWYREAPGKERELVAAITGRGGRTYYADSVKGRFTISRDNAKNTVYLQMHSLKPEDTAVYYCAARYRGTDFDYWGQGTQVTVSS : high polyreactivity

----------
experiment: yeast display, Sf9 membrane polyspecificity reagent, FACS + sequencing; frameworks hold sequencing errors
Value Kind: polyreactivity (PSR sort gate)

QVQLEESGGGLVQAGGSLRLSCAASGYTFSFYAMGWYRQAPGKERELVAAISRSGGSTYYADSVKGRFTISRDNAKNTVYLQMNSLKPEDTAVYYCAARWPGAYHEYGYWGQGTQVTVSS : high polyreactivity
QVQLEESGGGLVQAGGSLRLSCAASGSISYYYGMGWYRQAPGKERELVAAISTRGGSTYYADSVKGRFTISRDNAKNTVYLQMNSLKPEDTAVYYCNKVYYKRFYYWGQGTQVTVSS : high polyreactivity
QVQLVESGGGLVQAGGSLRLICAASGFTFAKYAMGSYTQAPGKERQLVAGITGNSGTTYYADSVKGRFTISRDNAKNTVYLQMNSLKPEDTAVYYCAAEEVSWNGTGDYWGQGTQVTVSS : high polyreactivity
QVQLVESGGGLVQAGGSLRLSCAASGFTFRRNAMGWYLQAPGKERELVARISSGGSTNYADSVKGRFTISRDNAKNTVYLQMNSLKPEDSAVYYCATGKGPYPYRQRYGYWGQGTKVTVSS : high polyreactivity
